assaySystem: K-Ras G12C (Homo sapiens (Human), UniProt P01116+P62937, G12C)
Sequence (P01116-2 other isoform, or with tags, fused parts or gaps G12C): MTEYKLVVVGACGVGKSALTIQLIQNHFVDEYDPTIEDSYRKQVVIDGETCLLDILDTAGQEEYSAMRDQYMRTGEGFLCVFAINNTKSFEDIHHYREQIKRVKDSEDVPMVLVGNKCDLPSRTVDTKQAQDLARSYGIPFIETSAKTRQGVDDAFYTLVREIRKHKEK
Sequence (P62937 whole entry): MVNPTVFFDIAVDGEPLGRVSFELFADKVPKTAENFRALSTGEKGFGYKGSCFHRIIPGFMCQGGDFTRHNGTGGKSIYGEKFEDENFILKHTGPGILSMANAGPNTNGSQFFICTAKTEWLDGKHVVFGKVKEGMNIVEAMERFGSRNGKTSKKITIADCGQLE
measurementNotes: Ras-Raf (BRAF RBD) disruption / FRET / MOA assay, KRAS G12C
Assay type: biochemical
testSettings: KRAS G12C; Ras-Raf disruption/FRET/MOA assay; read-out: IC50* KRAS G12C FRET data
Procedure: The purpose of this biochemical assay is to measure the ability of test compounds to facilitate ternary complex formation between a nucleotide-loaded Ras isoform and cyclophilin A; the resulting ternary complex disrupts binding to a BRAF^RBD construct, inhibiting Ras signaling through a RAF effector. Compound is present in plate wells as a 10-point 3-fold dilution series starting at a final concentration of 30 μM. […]
pIC50: −log10 of the molar value.
quantity: pIC50

Record C=CC(=O)NC[C@H]1CCN1C(=O)N(C)[C@H](C(=O)N[C@H]1Cc2nc(cs2)-c2ccc3c(c2)c(c(-c2cccnc2[C@H](C)OC)n3CC)CC(C)(C)COC(=O)[C@@H]2CCCN(N2)C1=O)C(C)C (atropisomer, axis not shown) [Example A356] : what is its pIC50 with K-Ras G12C (Homo sapiens (Human), UniProt P01116+P62937, G12C)?
6.00 to 7.00

Record CCn1c(-c2cccnc2[C@H](C)OC)c2c3cc(ccc31)-c1csc(n1)C[C@H](NC(=O)[C@H](C(C)C)N(C)C(=O)N(C)C1CN(C(=O)/C=C/C3CN(C)C3)C1)C(=O)N1CCC[C@H](N1)C(=O)OCC(C)(C)C2 (atropisomer, axis not shown) [Example A690] : what is its pIC50 with K-Ras G12C (Homo sapiens (Human), UniProt P01116+P62937, G12C)?
6.00 to 7.00

Record C=CC(=O)N1CCC2(CCCN(C(=O)N(C)[C@H](C(=O)N[C@H]3Cc4nc(cs4)-c4ccc5c(c4)c(c(-c4cccnc4[C@H](C)OC)n5CC)CC(C)(C)COC(=O)[C@@H]4CCCN(N4)C3=O)C(C)C)C2)CC1 (atropisomer, axis not shown) [Example A696] : what is its pIC50 with K-Ras G12C (Homo sapiens (Human), UniProt P01116+P62937, G12C)?
6.00 to 7.00

Record C=CC(=O)Nc1csc(C(=O)N(C)[C@H](C(=O)N[C@H]2Cc3cc(O)cc(c3)-c3ccc4c(c3)c(c(-c3cccnc3[C@H](C)OC)n4CC)CC(C)(C)COC(=O)[C@@H]3CCCN(N3)C2=O)C(C)C)n1 (atropisomer, axis not shown) [Example A259] : what is its pIC50 with K-Ras G12C (Homo sapiens (Human), UniProt P01116+P62937, G12C)?
6.00 to 7.00

Record C=CC(=O)N1CCN(C(=O)N(C)[C@H](C(=O)N[C@H]2Cc3nc(cs3)-c3ccc4c(c3)c(c(-c3cccnc3[C@H](C)OC)n4CC)CC(C)(C)COC(=O)[C@@H]3CCCN(N3)C2=O)C(C)C)C[C@H]1C (atropisomer, axis not shown) [Example A432] : what is its pIC50 with K-Ras G12C (Homo sapiens (Human), UniProt P01116+P62937, G12C)?
7.00 to 8.00

Record C=CC(=O)N1CC[C@H](C(=O)N(C)[C@H](C(=O)N[C@H]2Cc3csc(n3)-c3ccc4c(c3)c(c(-c3cccnc3[C@H](C)OC)n4CC)CC(C)(C)COC(=O)[C@@H]3CCCN(N3)C2=O)C(C)C)C1 (atropisomer, axis not shown) [Example A330] : what is its pIC50 with K-Ras G12C (Homo sapiens (Human), UniProt P01116+P62937, G12C)?
6.00 to 7.00

Record C=CC(=O)N1CCOC2(CCN(C(=O)N(C)[C@H](C(=O)N[C@H]3Cc4nc(n(C)n4)-c4ccc5c(c4)c(c(-c4cccnc4[C@H](C)OC)n5CC(F)(F)F)CC(C)(C)COC(=O)[C@@H]4CCCN(N4)C3=O)C(C)C)CC2)C1 (atropisomer, axis not shown) [Example A606] : what is its pIC50 with K-Ras G12C (Homo sapiens (Human), UniProt P01116+P62937, G12C)?
6.00 to 7.00

Record C=CC(=O)N1CC[C@H](C(=O)N(C)C(C(=O)N[C@H]2C[C@H]3CN(CCO3)c3ccc4c(c3)c(c(-c3cccnc3[C@H](C)OC)n4CC)CC(C)(C)COC(=O)[C@@H]3CCCN(N3)C2=O)C(C)C)C1 (mixture of isomers) [Example A507] : what is its pIC50 with K-Ras G12C (Homo sapiens (Human), UniProt P01116+P62937, G12C)?
6.00 to 7.00
